biological target: NUAK1 (human) (UniProt O60285); experiment: radiometric filter-binding kinase assay, Kinase HotSpot; details: compound 0.5 µM; ATP 10 µM
Sequence (O60285 whole entry, looked up): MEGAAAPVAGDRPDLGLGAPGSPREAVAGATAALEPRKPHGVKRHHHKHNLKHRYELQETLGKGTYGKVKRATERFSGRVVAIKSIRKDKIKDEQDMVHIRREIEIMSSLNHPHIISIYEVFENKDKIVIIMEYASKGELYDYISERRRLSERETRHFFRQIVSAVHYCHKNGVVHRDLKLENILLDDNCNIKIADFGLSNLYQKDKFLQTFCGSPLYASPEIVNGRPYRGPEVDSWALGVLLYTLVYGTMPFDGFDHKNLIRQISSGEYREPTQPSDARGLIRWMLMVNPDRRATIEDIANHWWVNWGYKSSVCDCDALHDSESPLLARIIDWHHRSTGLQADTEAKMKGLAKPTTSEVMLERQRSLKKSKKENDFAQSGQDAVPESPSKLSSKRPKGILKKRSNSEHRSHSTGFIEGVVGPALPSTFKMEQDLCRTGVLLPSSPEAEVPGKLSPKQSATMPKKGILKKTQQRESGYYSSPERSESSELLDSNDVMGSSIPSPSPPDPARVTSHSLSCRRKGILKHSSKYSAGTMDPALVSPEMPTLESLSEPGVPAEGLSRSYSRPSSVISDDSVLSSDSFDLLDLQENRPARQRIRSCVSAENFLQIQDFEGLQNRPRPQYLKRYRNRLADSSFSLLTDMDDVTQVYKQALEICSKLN
readout_kind: residual activity (%)
Give the value in % but do not write % after it.

line_notation | scale_unit | residual activity
N#C/C(=C(/N)Sc1ccc(N)cc1)c1ccccc1C(F)(F)F | % | 95.9

Query :: Quick check: residual activity on NUAK1 (human) (UniProt O60285), item "CCCC(=O)Oc1ccc2[nH]c(C(=O)c3cc4ccccc4[nH]3)cc2c1" ?
Result :: 94

Query :: Quick check: residual activity on NUAK1 (human) (UniProt O60285), item "O=C1Nc2ccc(Cl)cc2/C1=C/c1cc(Cl)c(O)c(Cl)c1" ?
Result :: 72.5

Query :: Quick check: residual activity on NUAK1 (human) (UniProt O60285), item "O=S(=O)(c1cccc2cnccc12)N1CCCNCC1" ?
Result :: 73.2

Query :: Quick check: residual activity on NUAK1 (human) (UniProt O60285), item "Cc1ccc(S(=O)(=O)/C=C/C#N)cc1" ?
Result :: 101

Query :: Quick check: residual activity on NUAK1 (human) (UniProt O60285), item "O=C1NC(=O)c2c1c1c3ccccc3n3c1c1c2c2ccccc2n1C1CCC3O1" ?
Result :: 2.09

Query :: Quick check: residual activity on NUAK1 (human) (UniProt O60285), item "c1ccc(-c2n[nH]cc2-c2ccnc3ccccc23)nc1" ?
Result :: 95.5

Query :: Quick check: residual activity on NUAK1 (human) (UniProt O60285), item "Cc1ccc(Nc2nccc(N(C)c3ccc4c(C)n(C)nc4c3)n2)cc1S(N)(=O)=O" ?
Result :: 53.4

Query :: Quick check: residual activity on NUAK1 (human) (UniProt O60285), item "O=C(Nc1cccc(Nc2nccc(Nc3cccc(C(F)(F)F)c3)n2)c1)C1CC1" ?
Result :: 67.2

Query :: Quick check: residual activity on NUAK1 (human) (UniProt O60285), item "Nc1cccc(-c2cc3c(Oc4cccc(O)c4)ncnc3[nH]2)c1" ?
Result :: 37
